The origin of these recorded values is ChEMBL document CHEMBL1157539.

Exercise: for every item that follows, state its recorded Inhibition.
- System: Plasmodium falciparum
- assay: GSK_TCMDC: Inhibition of Plasmodium falciparum 3D7 in whole red blood cells, using parasite LDH activity as an index of growth. Test compounds present at 2uM
- Format: functional
Could you kindly put the unit after your number?

CCCCOc1c(CCC)cc(Cc2cnc(N)nc2N)cc1CCC.Cl
97%
Cc1cc2nc(-c3ccc(C(=O)NCc4cccc(C(F)(F)F)c4)cc3)[nH]c2cc1C
98%
CCCCCCN1CCC(NCc2ccc(CN(C)C)cc2)CC1.O=C(O)C(F)(F)F
92%
O=C(C=Cc1ccc(Cl)c(Cl)c1)NCCCCCN1CCC(CCCNS(=O)(=O)c2ccc(Br)cc2)CC1
93%

Proceed to the following item.
Looking up Cc1cc(=O)c2cc(-c3ccc(OC(F)(F)F)cc3)ccc2[nH]1 , I see its Inhibition listed as 96%

====

- Tested on: Plasmodium falciparum
- assay: GSK_TCMDC: Inhibition of Plasmodium falciparum Dd2 in whole red blood cells, using parasite LDH activity as an index of growth. Test compounds present at 2uM
- Type: functional
reportedMetric: Inhibition (%)
Numbers only, in %.

Below are some compounds; for each one, tell me its Inhibition.
1. CNCCNCc1ccc(-c2ccc(-c3nc4ccccc4[nH]3)s2)cc1.O=C(O)C(F)(F)F
2. O=C(Nc1cccc(-c2cccc(-c3nc4cc(C(F)(F)F)ccc4[nH]3)c2)c1)c1c[nH]cn1
3. COc1cccc(Nc2nccc(NCC(O)c3cccc(C(F)(F)F)c3)n2)c1 (stereo not given)
4. C(=N\Nc1nccc2sc(-c3cccnc3)cc12)/c1cccnc1
5. Br.C=CCNC(CCCCC)c1ccc(OCCOc2ccc(C(CCCCC)NCC=C)cc2)cc1 (stereo not given)
6. COc1cccc(NC(=O)Nc2ccc(C)c(-c3ccc(C(=O)Nc4ccncc4)cc3)c2)c1
7. COc1cc(-c2cnc(N)c(-c3nc4ccccc4[nH]3)c2)cc(OC)c1OC.Cl

Completion:
1. 15
2. 100
3. 27
4. 54
5. 48
6. 64
7. 57

Below are some compounds; for each one, tell me its Inhibition.
1. COc1ccc(C(=O)C2CC2CN(C)CCC(O)c2ccc(Cl)c(Cl)c2)cc1 (stereo not given)
2. CN1CCc2cc(NC(=O)c3cc4ccccc4s3)cc(-c3ccccc3)c2CC1.Cl
3. CCCSc1nc2c(c(=O)n1CCc1ccccc1)C1(CCCC1)Cc1ccccc1-2

Completion:
86
11
53

====

- System: Plasmodium falciparum
- assay: GSK_TCMDC: Inhibition of Plasmodium falciparum 3D7 in whole red blood cells, using parasite LDH activity as an index of growth. Test compounds present at 2uM
- Assay type: functional
Exercise: for every item that follows, state its recorded Inhibition.
Could you kindly put the unit after your number?

COc1ccc2nccc([C@@H](O)CN3CCC(NCc4ccc5c(n4)NCCC5)CC3)c2c1
100%
COc1ccc(C=Cc2ccc(-c3c(C)[nH]c(C)c(Cl)c3=O)cc2)cc1OC
97%
Oc1cc(NCCCNC2CCc3c(Cl)cc(Cl)cc32)nc2ccccc12 (centres undefined)
100%
Cc1nc2ccc(-c3nc4cc(N)ccc4[nH]3)cc2[nH]1
94%
COc1ccc2nccc(NC(=O)CNCc3ccc(-c4ccccc4)cc3)c2c1
100%

Below are some molecules; for each one, tell me its Inhibition.
1. CCNS(=O)(=O)c1ccc(Oc2ccc([N+](=O)[O-])cc2)cc1
2. Cc1ccc(N2C(=O)C3C(C2=O)C2(c4ccccc4)C(=O)C3(c3ccccc3)C(c3ccccc3)=C2c2ccccc2)c(C)c1 (centres undefined)
3. COc1ccc(CNC(=O)NC2CCN(c3ccnc(Nc4ccc(OC)cc4)n3)C2)cc1 (centres undefined)
4. Fc1cccc(COc2ccc(-n3ccc4c(NCCCn5ccnc5)ncnc43)cc2Cl)n1
5. CCN(CCCN1CCCCC1)c1cc(C)nc(Nc2cc(F)cc(F)c2)n1.O=C(O)C(F)(F)F
6. Nc1ncc(-c2cn[nH]c2)cc1-c1nc2ccc(Cl)cc2[nH]1
7. CN1CCC(N2CCN(c3ccc4c(=O)nc(CCc5cccc(F)c5F)n(CC(=O)N(C)Cc5ccc(-c6ccc(C(F)(F)F)cc6)cc5)c4n3)CC2)CC1.O=C(O)C(O)C(O)C(=O)O
8. O=C(COc1ccc(Cl)c(Cl)c1)NCCCCCN1CCCN(C(=O)Nc2cc(Cl)cc(Cl)c2)CC1.O=C(O)C(F)(F)F

Completion:
1: 94%; 2: 96%; 3: 87%; 4: 87%; 5: 100%; 6: 100%; 7: 100%; 8: 89%

Below are some molecules; for each one, tell me its Inhibition.
1. Cc1cccc2nc(-c3ccc(-c4ccc(NC(=O)C(C)CN(C)C)cc4)s3)[nH]c12 (centres undefined)
2. CCNc1cc(C(=O)N[C@@H](Cc2ccccc2)[C@H](O)CNCCc2cccc3ccccc23)cc(N2CCCC2=O)c1.O=CO
3. Cc1ccc2[nH]c3c(c2c1)CC(C(=O)NCCC(C)C)NC31CCN(Cc2ccccc2)CC1 (centres undefined)
4. C#CCNCc1ccc(-c2ccc(-c3nc4cc(C(F)(F)F)ccc4[nH]3)s2)cc1.O=C(O)C(F)(F)F
5. CCc1nc(N)nc(N)c1-c1ccc2c(c1)CCCC2
6. Cc1cc(=NN=Cc2cccc(F)c2)c2ccc(F)cc2[nH]1

Completion:
["100%", "86%", "95%", "98%", "95%", "100%"]

====

- System: HepG2
- assay: GSK_TCMDC: Percent inhibition of human HepG2 cell line. Test compounds present at 10uM.
- Format: functional
Use rule met when the recorded Inhibition is no lower than 20%; use rule not met when it is lower.

Prompt: Quick check, Inhibition >= 20%? O=C(O)C(F)(F)F.OCCC1CCN(Cc2ccc(-c3ccc(-c4nc5ccccc5[nH]4)cc3)cc2)CC1
Completion: rule met

Prompt: Quick check, Inhibition >= 20%? CC(C)CNC(=O)c1ccnc(-c2ccc(CNCCCc3ccccc3)cc2)c1.O=C(O)C(F)(F)F
Completion: rule not met

Prompt: Quick check, Inhibition >= 20%? CCCCCC(=O)N1CCOC(CCN2CCC(c3ccccc3)CC2)(c2ccc(Cl)c(Cl)c2)C1 (centres undefined)
Completion: rule not met

====

Exercise: for every item that follows, state its recorded Inhibition.
- System: HepG2
- assay: GSK_TCMDC: Percent inhibition of human HepG2 cell line. Test compounds present at 10uM.
- Assay type: functional
One number for each entry, in %.

O=C(N[C@@H](CC1CCCCC1)C(=O)NCCN1CCCCC1)c1ccc(O)c(-c2cccc(C(F)(F)F)c2)c1
0

Below are some molecules; for each one, tell me its Inhibition.
1. C=CCOc1ccc(-c2c(C)[nH]c(C)c(Br)c2=O)cc1
2. O=C(Nc1cccc(C(F)(F)F)c1)c1cccc(S(=O)(=O)NCC2CCN(CC3CCCCC3)CC2)c1.O=C(O)C(F)(F)F
3. O=C(/C=C/c1ccc(Cl)c(Cl)c1)NCCCCCCN1CCN(C(=O)Nc2ccc(C(F)(F)F)cc2)CC1

Completion:
1: 5; 2: 27; 3: 42

====

Exercise: for every item that follows, state its recorded Inhibition.
- System: Plasmodium falciparum
- assay: GSK_TCMDC: Inhibition of Plasmodium falciparum 3D7 in whole red blood cells, using parasite LDH activity as an index of growth. Test compounds present at 2uM
- Format: functional
Numbers only, in %.

N=C(N)Nc1nc(-c2cccc(NCCCCCCCCON3C(N)=NC(N)=NC34CCCCC4)c2)cs1.O=C(O)C(F)(F)F
97
CCNc1cc(C(=O)N[C@@H](Cc2ccco2)[C@H](O)CNC2CCCCC2)cc(N2CCCCS2(=O)=O)c1.Cl
91

Below are some compounds; for each one, tell me its Inhibition.
1. O=C1COc2ccc3ccccc3c21
2. NC12CC3CC(CC(C3)C1)C2 [AMANTADINE]
3. CC(CN1CCN(CC(c2ccc(F)cc2)N2CCN(C)CC2)CC1)C(=O)c1ccc(O)cc1.O=C(O)/C=C\C(=O)O (centres undefined)
4. CCNc1cc(C(=O)N[C@@H](Cc2ccccc2)[C@H](O)CNCc2cc(C#N)ccc2OC)cc(N2CCCC2=O)c1.O=C(O)C(F)(F)F
5. Cc1cc(C2CCN(CCCCNC(=O)c3ccc(-c4ccc(C(F)(F)F)cc4)cc3)CC2)c(C)cc1OCC#N

Completion:
1: 99; 2: 98; 3: 97; 4: 85; 5: 100

Below are some compounds; for each one, tell me its Inhibition.
1. CNc1nc(N/N=C/c2cc([N+](=O)[O-])c(Cl)cc2Cl)nc(Nc2cccc(C(F)(F)F)c2)n1
2. COc1ccc(-c2cn3c(C(=O)Nc4ccccc4Cl)c(-c4ccccc4)c4c3n2CCCC4)cc1
3. c1ccc(-c2nnc(-c3ccccn3)nc2NC2CCCCC2)cc1
4. COc1ccc(N2CCN(CCCNC(=O)c3ccc(NC(=O)c4cc(Cl)cc(Cl)c4)cc3)CC2)c(OC)c1
5. COc1c(I)cc(Cc2cnc(N)nc2N)cc1I

Completion:
[100, 100, 97, 100, 91]

Below are some compounds; for each one, tell me its Inhibition.
1. OC(CNCc1ccccc1OCc1ccccc1)c1cccc(Cl)c1 (centres undefined)
2. COc1ccc(S(=O)(=O)NC2CCN(CCNC(=O)Nc3cc(C)nc4ccccc34)C2)cc1 (centres undefined)
3. O=C(CC1CCCCC1)NCC(NCCCNc1cc(=O)c2ccccc2[nH]1)c1cc(Br)cc(Br)c1 (centres undefined)
4. Cl.NOCCCOc1ccccc1
5. O=C(NCCCNc1ccc2ccccc2n1)c1cc2c(Cl)cc(Cl)cc2[nH]1

Completion:
100
88
95
100
100

Below are some compounds; for each one, tell me its Inhibition.
1. Cc1ccc(O)cc1Nc1c(C(N)=O)cnc2ccc(-c3cncs3)cc12
2. O=C(N[C@H](Cc1ccc(Cl)cc1)C(=O)N1CCN(c2ccnc3cc(Cl)ccc23)CC1)[C@H]1Cc2ccccc2CN1.O=C(O)C(F)(F)F

Completion:
1: 100; 2: 85
